tested.system: T1, IL-2Rβγ on HEK-Blue IL-2Rβγ reporter cells (InvivoGen) (UniProt P14784 27-551; P31785 23-369, limits assumed)
T1 sequence (looked up) 1: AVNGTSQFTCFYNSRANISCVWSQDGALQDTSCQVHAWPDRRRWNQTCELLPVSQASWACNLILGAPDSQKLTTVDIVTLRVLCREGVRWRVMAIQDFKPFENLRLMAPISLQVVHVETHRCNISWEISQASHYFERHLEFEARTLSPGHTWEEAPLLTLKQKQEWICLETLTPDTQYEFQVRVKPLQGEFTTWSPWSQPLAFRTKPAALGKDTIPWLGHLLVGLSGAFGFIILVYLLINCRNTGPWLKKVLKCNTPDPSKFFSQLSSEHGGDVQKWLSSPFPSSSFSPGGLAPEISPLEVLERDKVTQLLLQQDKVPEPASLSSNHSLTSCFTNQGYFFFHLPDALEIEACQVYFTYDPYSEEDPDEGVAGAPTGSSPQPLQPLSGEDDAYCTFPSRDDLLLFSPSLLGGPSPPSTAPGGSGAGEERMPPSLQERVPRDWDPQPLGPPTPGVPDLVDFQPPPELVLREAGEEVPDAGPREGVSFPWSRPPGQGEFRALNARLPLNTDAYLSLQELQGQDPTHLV
T1 sequence (looked up) 2: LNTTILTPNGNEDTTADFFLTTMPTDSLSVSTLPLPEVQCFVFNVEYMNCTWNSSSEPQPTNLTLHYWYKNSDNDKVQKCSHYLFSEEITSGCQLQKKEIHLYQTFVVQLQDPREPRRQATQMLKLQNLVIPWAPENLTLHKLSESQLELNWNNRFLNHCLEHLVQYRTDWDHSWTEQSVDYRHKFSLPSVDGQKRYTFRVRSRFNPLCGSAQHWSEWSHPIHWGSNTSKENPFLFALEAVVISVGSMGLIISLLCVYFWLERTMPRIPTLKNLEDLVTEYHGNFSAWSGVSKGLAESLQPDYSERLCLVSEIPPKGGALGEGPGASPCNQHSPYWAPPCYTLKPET
assay.details: cell-based or functional assay
Primed or numbered codes have the meaning given here. [ ]: non-standard residue; d: D form. Ygp″ = O-(8x polyethylene glycol-amino)-tyrosine; Yn3″ = O-(9x polyethylene glycol-azido)-tyrosine; hSer = N[C@@H](CCO)C(=O)O; Nle = CCCC[C@H](N)C(=O)O
reported.metric: Average EC50, HEK-Blue IL-2R (CD122+, CD132+) Reporter Assay, MMP2 cleaved molecule (nM)
Please respond with the number in nM and leave the unit unwritten.

binder	recorded.value
CMP-300, MMP2 cleaved (ligand, ends and bridges not checked; also: MMP2 cleaved, ring opened, cut site and remnants not given here) APTSSSTKKTQLQLEHLLLDLQEILNGINNYKNPKLTR[Nle]L[hSer][Yn3″]KF[Ygp″][Nle]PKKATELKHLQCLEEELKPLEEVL[hSer]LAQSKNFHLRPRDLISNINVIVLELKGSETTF[hSer]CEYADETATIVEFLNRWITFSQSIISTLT	0.0094

Ask: Quick check: Average EC50, HEK-Blue IL-2R (CD122+, CD132+) Reporter Assay, MMP2 cleaved molecule of CMP-303, MMP2 cleaved (ligand, ends and bridges not checked; also: MMP2 cleaved, ring opened, cut site and remnants not given here) PLGLAGAPTSSSTKKTQLQLEHLLLDLQEILNGINNYKNPKLTR[Nle]L[hSer][Yn3″]KF[Ygp″][Nle]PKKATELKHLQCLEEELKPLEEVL[hSer]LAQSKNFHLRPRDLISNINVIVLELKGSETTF[hSer]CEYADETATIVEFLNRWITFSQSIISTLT ?
Reply: 0.0218
